- Test system: T47D
- Experiment Summary: NCI tumour cell line growth inhibition, 48 h
The source made the active and inactive calls. Cut-off read from the data, not from the text of the source: active = GI50 up to about 1.1 µM and inactive = higher.
Parameter: GI50

For orientation, consider the following solved cases.
GI50 lookup needed for CC(C)(/N=N/C(C)(C)C1=NCCN1)C1=NCCN1 , thanks.
76.6 µM (inactive)

GI50 lookup needed for CC(=O)O[C@H]1CCC2[C@@H]3CCC4Nc5oncc5C[C@]4(C)C3CC[C@@]21C (stereo not given in full) , thanks.
> 10 µM (inactive)

GI50 lookup needed for O=C1Sc2ccc(Br)cc2C(=O)Sc2ccccc21 , thanks.
9.29 µM (inactive)

GI50 lookup needed for COC(=O)[C@@H]1[C@H](OC(C)=O)CCC2[C@@]3(C[C@@H](c4ccoc4)O[C@@H]3OC)[C@H](C)CC[C@]21C(=O)OC (stereo not given in full) , thanks.
> 25 µM (inactive)

GI50 lookup needed for C#CC(=O)OCC#CCOC(=O)C#C , thanks.
23.7 µM (inactive)

GI50 lookup needed for O=C(Nc1ccc(Br)cc1)c1c(-c2ccccc2)c2ccc(O)cc2oc1=O , thanks.
> 10 µM (inactive)

GI50 lookup needed for O=C1/C(=C/c2c(Cl)[nH]c3ccccc23)c2ccccc2N1c1ccccc1 , thanks.
3.37 µM (inactive)

GI50 lookup needed for O=C1C2SC34c5c2c2ccccc2n5CCC3CCCN14 (stereo not given) , thanks.
91.2 µM (inactive)

GI50 lookup needed for OCC1c2ccccc2-n2nc(-c3ccccc3)c(O)c21 (stereo not given) , thanks.
22.3 µM (inactive)

GI50 lookup needed for Cc1cc(Cl)ccc1C(=O)c1ccc2ccccc2c1C(=O)O , thanks.
> 100 µM (inactive)

New cases:
GI50 lookup needed for CSCCC(NCc1c(O)ccc2c(-c3ccccc3)cc(=O)oc12)C(=O)O (stereo not given) , thanks.
> 100 µM (inactive)
